- Tested on: Sagittaria pygmaea, L.
- PROCEDURE_TEXT: Preemergence weed control under flooded paddy conditions, SAGPY (Arrowhead (Pygmaea))
- Type: in vivo
- TEST_CONTEXT: 0.1250 kg/ha; preemergence, flooded paddy; rated three to four weeks after treatment
MEASURED_ATTRIBUTE: SAGPY herbicidal rating
Kindly provide the number alone.

Exam item: # SAGPY herbicidal rating lookup, item Cn1c(C(F)(F)F)cc(=O)n(-c2ccc3snc(COC(=O)c4cccs4)c3c2)c1=O [Example 477]
Marked response: 0.0

Exam item: # SAGPY herbicidal rating lookup, item CC(C)NS(=O)(=O)NC(=O)c1nsc2ccc(-n3c(=O)cc(C(F)(F)F)n(C)c3=O)cc12 [Example 508]
Marked response: 9.0

Exam item: # SAGPY herbicidal rating lookup, item Cn1c(C(F)(F)F)cc(=O)n(-c2ccc3snc(C(=O)NO)c3c2)c1=O [Example 471]
Marked response: 5.0

Exam item: # SAGPY herbicidal rating lookup, item CC(C)c1nsc2ccc(-n3c(=O)cc(C(F)(F)F)n(C)c3=O)cc12 [Example 499]
Marked response: 9.0

Exam item: # SAGPY herbicidal rating lookup, item CN(C)S(=O)(=O)NC(=O)c1nsc2ccc(-n3c(=O)cc(C(F)(F)F)n(C)c3=O)cc12 [Example 507]
Marked response: 9.0

Exam item: # SAGPY herbicidal rating lookup, item COC(=O)COc1cc(Cl)c(C)cc1-c1nsc2ccc(-n3c(=O)cc(C(F)(F)F)n(C)c3=O)cc12 [Example 493]
Marked response: 0.0

Exam item: # SAGPY herbicidal rating lookup, item Cn1c(C(F)(F)F)cc(=O)n(-c2ccc3snc(C(=O)NS(=O)(=O)/C=C/c4ccccc4)c3c2)c1=O [Example 501]
Marked response: 5.0

Exam item: # SAGPY herbicidal rating lookup, item COC(CCOc1ccc(C)cc1-c1nsc2ccc(-n3c(=O)cc(C(F)(F)F)n(C)c3=O)cc12)OC [Example 467]
Marked response: 3.0

Exam item: # SAGPY herbicidal rating lookup, item COC(=O)COc1cc(C)ccc1-c1nsc2cc(F)c(-n3c(=O)cc(C(F)(F)F)n(C)c3=O)cc12 [Example 479]
Marked response: 6.0

Exam item: # SAGPY herbicidal rating lookup, item Cn1c(C(F)(F)F)cc(=O)n(-c2ccc3snc(C(=O)NS(N)(=O)=O)c3c2)c1=O [Example 472]
Marked response: 2.0

Exam item: # SAGPY herbicidal rating lookup, item Cn1c(C(F)(F)F)cc(=O)n(-c2ccc3snc(C(=O)NS(=O)(=O)Cc4cccc(Cl)c4)c3c2)c1=O [Example 486]
Marked response: 3.0

Exam item: # SAGPY herbicidal rating lookup, item Cc1ccccc1CS(=O)(=O)NC(=O)c1nsc2ccc(-n3c(=O)cc(C(F)(F)F)n(C)c3=O)cc12 [Example 465]
Marked response: 5.0

Exam item: # SAGPY herbicidal rating lookup, item Cn1c(C(F)(F)F)cc(=O)n(-c2ccc3snc(COC(=O)c4ccc(Cl)nc4)c3c2)c1=O [Example 481]
Marked response: 0.0

Exam item: # SAGPY herbicidal rating lookup, item Cc1ccc(OC(C)(C)C(=O)OC(C)(C)C)c(-c2nsc3ccc(-n4c(=O)cc(C(F)(F)F)n(C)c4=O)cc23)c1 [Example 514]
Marked response: 0.0

Exam item: # SAGPY herbicidal rating lookup, item Cn1c(C(F)(F)F)cc(=O)n(-c2cc3c(C(=O)NS(=O)(=O)Cc4ccccc4)nsc3cc2F)c1=O [Example 482]
Marked response: 5.0

Exam item: # SAGPY herbicidal rating lookup, item Cn1c(C(F)(F)F)cc(=O)n(-c2ccc3snc(COC(=O)c4ccco4)c3c2)c1=O [Example 497]
Marked response: 2.0

====

- Tested on: Sagittaria pygmaea, L.
- PROCEDURE_TEXT: Preemergence weed control under flooded paddy conditions, SAGPY (Arrowhead (Pygmaea)); as to herbicidal effect rating, SAGPY: meaning of each grade not given here
- Format: in vivo
- TEST_CONTEXT: 0.0625 kg/ha; preemergence, flooded paddy; rated three to four weeks after treatment
# label = y if herbicidal effect rating, SAGPY < 4 else n

Exam item: In plain terms, does COc1cc(C)ccc1-c1nsc2ccc(-n3c(=O)cc(C(F)(F)F)n(C)c3=O)cc12 come in under 4 for herbicidal effect rating, SAGPY?
Marked response: n

Exam item: In plain terms, does COCc1nsc2ccc(-n3c(=O)cc(C(F)(F)F)n(C)c3=O)cc12 come in under 4 for herbicidal effect rating, SAGPY?
Marked response: n

Exam item: In plain terms, does COC(=O)C(C)Oc1cc(C)c(C)cc1-c1nsc2ccc(-n3c(=O)cc(C(F)(F)F)n(C)c3=O)cc12 (stereo not shown) come in under 4 for herbicidal effect rating, SAGPY?
Marked response: y

Exam item: In plain terms, does Cc1cc(O)c(-c2nsc3ccc(-n4c(=O)cc(C(F)(F)F)n(C)c4=O)cc23)cc1C come in under 4 for herbicidal effect rating, SAGPY?
Marked response: y

Exam item: In plain terms, does CCN(CC)C(=O)COc1ccc(C)cc1-c1nsc2ccc(-n3c(=O)cc(C(F)(F)F)n(C)c3=O)cc12 come in under 4 for herbicidal effect rating, SAGPY?
Marked response: y

Exam item: In plain terms, does Cc1noc2cc(F)c(-n3c(=O)cc(C(F)(F)F)n(C)c3=O)cc12 come in under 4 for herbicidal effect rating, SAGPY?
Marked response: n

Exam item: In plain terms, does CC(=O)OCc1nsc2ccc(-n3c(=O)cc(C(F)(F)F)n(C)c3=O)cc12 come in under 4 for herbicidal effect rating, SAGPY?
Marked response: y

Exam item: In plain terms, does COC(=O)COc1ccc(C)cc1-c1nsc2ccc(-n3c(=O)cc(C(F)(F)F)n(C)c3=O)cc12 come in under 4 for herbicidal effect rating, SAGPY?
Marked response: y

Exam item: In plain terms, does CSCc1nsc2ccc(-n3c(=O)cc(C(F)(F)F)n(C)c3=O)cc12 come in under 4 for herbicidal effect rating, SAGPY?
Marked response: y

====

- Tested on: Echinochloa oryzoides (Ard.) Fritsch.
- PROCEDURE_TEXT: Preemergence weed control under flooded paddy conditions, ECHORC (Watergrass (Calif.)); also: meaning of each grade not given here
- Format: in vivo
- TEST_CONTEXT: Rate 0.1250 kg/ha; preemergence, flooded paddy; rated three to four weeks after treatment
// thresholds for herbicidal effect rating, ECHORC classes: low group = under 4, middle group = from 4 up to 6, high group = 6 and over

Exam item: Please classify: Cn1c(C(F)(F)F)cc(=O)n(-c2ccc3snc(C(C#N)=Cc4ccc[nH]4)c3c2)c1=O [Example 598]
Marked response: low group

Exam item: Please classify: Cn1c(C(F)(F)F)cc(=O)n(-c2ccc3snc(COS(C)(=O)=O)c3c2)c1=O [Example 363]
Marked response: middle group

Exam item: Please classify: Cc1nsc2cc(F)c(-n3c(=O)cc(C(F)(F)F)n(C)c3=O)cc12 [Example 366]
Marked response: high group

Exam item: Please classify: Cn1c(C(F)(F)F)cc(=O)n(-c2ccc3snc(C(=O)NS(=O)(=O)c4ccc(Cl)cc4)c3c2)c1=O [Example 356]
Marked response: high group

Exam item: Please classify: C=CCC(C#N)(CC=C)c1nsc2ccc(-n3c(=O)cc(C(F)(F)F)n(C)c3=O)cc12 [Example 580]
Marked response: high group

Exam item: Please classify: Cn1c(C(F)(F)F)cc(=O)n(-c2ccc3snc(C(C#N)=Cc4ccccc4C#N)c3c2)c1=O [Example 606]
Marked response: middle group

Exam item: Please classify: C=CCONC(=O)c1nsc2ccc(-n3c(=O)cc(C(F)(F)F)n(C)c3=O)cc12 [Example 399]
Marked response: low group

Exam item: Please classify: Cn1c(C(F)(F)F)cc(=O)n(-c2ccc3snc(C(C#N)=Cc4ccncc4)c3c2)c1=O [Example 596]
Marked response: middle group

Exam item: Please classify: Cn1c(C(F)(F)F)cc(=O)n(-c2ccc3snc(C(C#N)=Cc4cc5ccccc5[nH]4)c3c2)c1=O [Example 601]
Marked response: low group

Exam item: Please classify: CCS(=O)(=O)NC(=O)c1nsc2ccc(-n3c(=O)cc(C(F)(F)F)n(C)c3=O)cc12 [Example 383]
Marked response: high group

Exam item: Please classify: Cc1ccc(OC(C)C(=O)NS(=O)(=O)C(C)C)c(-c2nsc3ccc(-n4c(=O)cc(C(F)(F)F)n(C)c4=O)cc23)c1 (stereo not drawn) [Example 568]
Marked response: middle group

Exam item: Please classify: C=CCC(c1nsc2ccc(-n3c(=O)cc(C(F)(F)F)n(C)c3=O)cc12)S(C)(=O)=O (stereo not drawn) [Example 602]
Marked response: high group

Exam item: Please classify: COC(C)c1nsc2ccc(-n3c(=O)cc(C(F)(F)F)n(C)c3=O)cc12 (stereo not drawn) [Example 350]
Marked response: high group

Exam item: Please classify: CCCCCCCOC(=O)c1nsc2ccc(-n3c(=O)cc(C(F)(F)F)n(C)c3=O)cc12 [Example 388]
Marked response: middle group

====

- System: Monochoria vaginalis, Presl.
- PROCEDURE_TEXT: Preemergence weed control under flooded paddy conditions, MOOVA (Monochoria)
- Assay type: in vivo
- TEST_CONTEXT: 0.0320 kg/ha; preemergence, flooded paddy; rated three to four weeks after treatment
MEASURED_ATTRIBUTE: MOOVA herbicidal rating
Kindly provide the number alone.

Exam item: # MOOVA herbicidal rating lookup, item COC(=O)C(C)(C)c1nsc2ccc(-n3c(=O)cc(C(F)(F)F)n(C)c3=O)cc12 [Example 490]
Marked response: 9.0

Exam item: # MOOVA herbicidal rating lookup, item COc1ccc(OC)c(CC(=O)OCc2nsc3ccc(-n4c(=O)cc(C(F)(F)F)n(C)c4=O)cc23)c1 [Example 503]
Marked response: 7.0

Exam item: # MOOVA herbicidal rating lookup, item Cn1c(C(F)(F)F)cc(=O)n(-c2ccc3snc(C(=O)NS(=O)(=O)/C=C/c4ccccc4)c3c2)c1=O [Example 501]
Marked response: 6.0

Exam item: # MOOVA herbicidal rating lookup, item COc1cc(Cl)c(C)cc1-c1nsc2ccc(-n3c(=O)cc(C(F)(F)F)n(C)c3=O)cc12 [Example 506]
Marked response: 8.0

Exam item: # MOOVA herbicidal rating lookup, item CSCOCc1nsc2ccc(-n3c(=O)cc(C(F)(F)F)n(C)c3=O)cc12 [Example 484]
Marked response: 7.0

Exam item: # MOOVA herbicidal rating lookup, item CN(C(=O)c1nsc2ccc(-n3c(=O)cc(C(F)(F)F)n(C)c3=O)cc12)S(=O)(=O)Cc1ccccc1 [Example 494]
Marked response: 4.0

Exam item: # MOOVA herbicidal rating lookup, item COC(=O)c1nsc2cc(F)c(-n3c(=O)cc(C(F)(F)F)n(C)c3=O)cc12 [Example 513]
Marked response: 9.0
